test system: 857933-349-R-J2-PDC complex spheroid viability; assay: Anticancer human tumor 857933-349-R-J2-PDC patient-derived colon adenocarcinoma cell line growth inhibition [POLQ]; conditions: curve of first compound; second compound 0.316 µM
pIC50: −log10 of the molar value.
Measured Metric: pIC50

Worked cases, pIC50 given:
>>> observed_value("CC(C)n1c(=O)n(C)c2cnc3cc(F)c(-c4ccc(OCCCN5CCCCC5)nc4)cc3c21 + Nc1ccc(C#CCN(C(=O)Cc2ncc(C(F)(F)F)cc2C(F)(F)F)c2ccc(F)cc2)nn1")
"< 5.00"
>>> observed_value("CCc1cc2c(N3CCc4c(cc(Cn5ccnc5)cc4-c4cn(C)nc4C(F)(F)F)C3=O)ccnc2c(OC)n1 + Nc1ccc(C#CCN(C(=O)Cc2ncc(C(F)(F)F)cc2C(F)(F)F)c2ccc(F)cc2)nn1")
"< 5.00"
>>> observed_value("Cn1ncnc1[C@H]1c2n[nH]c(=O)c3cc(F)cc(c23)N[C@@H]1c1ccc(F)cc1 + Cc1cccc(N(C)C(=O)C2C(O)CCN2c2nc(C)cc(C(F)(F)F)c2C#N)c1")
"< 7.00"
>>> observed_value("CC[C@@]1(O)C(=O)OCc2c1cc1n(c2=O)Cc2cc3c(CN(C)C)c(O)ccc3nc2-1 + COC1C(OC(N)=O)C(O)C(Oc2ccc3c(O)c(NC(=O)c4ccc(O)c(CC=C(C)C)c4)c(=O)oc3c2C)OC1(C)C")
"< 7.00"

Next:
## Task Which pIC50 is listed for O=C(Nc1ccc(O)c(NS(=O)(=O)c2ccc(F)cc2)c1)c1ccc(-c2ccccc2)cc1 + Cc1cccc(N(C)C(=O)C2C(O)CCN2c2nc(C)cc(C(F)(F)F)c2C#N)c1 ?
## Result < 5.00

----------
tested on: 857933-349-R-J2-PDC complex spheroid viability; test: Anticancer human tumor 857933-349-R-J2-PDC cell line growth inhibition [POLQ]; conditions: second compound 0.0316 µM; first compound 0.0316 µM; stronger effect = lower value;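 further: spheroids exposed to compounds for seven days before readout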
Mark label 1 only for viability, T/C values smaller than 90%; exact matches and larger values are label 0.

Consider the following illustrative entries.
>>> assigned_category("CCc1cc2c(N3CCc4c(cc(Cn5ccnc5)cc4-c4cn(C)nc4C(F)(F)F)C3=O)ccnc2c(OC)n1 + Cc1cccc(N(C)C(=O)C2C(O)CCN2c2nc(C)cc(C(F)(F)F)c2C#N)c1")
"label 0"
>>> assigned_category("COc1cc(C2c3cc4c(cc3C(OC3OC5COC(C)OC5C(O)C3O)C3COC(=O)C23)OCO4)cc(OC)c1O (centres undefined) + Nc1ccc(C#CCN(C(=O)Cc2ncc(C(F)(F)F)cc2C(F)(F)F)c2ccc(F)cc2)nn1")
"label 0"

## Task For O=C(c1cc(Cc2n[nH]c(=O)c3ccccc23)ccc1F)N1CCN(C(=O)C2CC2)CC1 + Nc1ccc(C#CCN(C(=O)Cc2ncc(C(F)(F)F)cc2C(F)(F)F)c2ccc(F)cc2)nn1 , is the recorded viability, T/C below the cut-off of 90%?
## Result label 1

## Task Please check: viability, T/C for CCc1cc2c(N3CCc4c(cc(Cn5ccnc5)cc4-c4cn(C)nc4C(F)(F)F)C3=O)ccnc2c(OC)n1 + Nc1ccc(C#CCN(C(=O)Cc2ncc(C(F)(F)F)cc2C(F)(F)F)c2ccc(F)cc2)nn1 , strictly under 90% or not?
## Result label 0

## Task Is the reported viability, T/C for CCCS(=O)(=O)Nc1ccc(F)c(C(=O)c2c[nH]c3ncc(-c4ccc(Cl)cc4)cc23)c1F + Nc1ccc(C#CCN(C(=O)Cc2ncc(C(F)(F)F)cc2C(F)(F)F)c2ccc(F)cc2)nn1 strictly below 90%?
## Result label 0

## Task For this compound, is viability, T/C lower than 90%? CCc1cc2c(N3CCc4c(cc(Cn5ccnc5)cc4-c4cn(C)nc4C(F)(F)F)C3=O)cc(C)nc2c(OC)n1 + Cc1cccc(N(C)C(=O)C2C(O)CCN2c2nc(C)cc(C(F)(F)F)c2C#N)c1
## Result label 0
